meta.source: patent US9687479B2

IC50 values for the compounds below.
- Target Entity: UniProtKB P03952
- Assay Comment: KLKB1 kallikrein activity inhibition assay (chromogenic substrate S-2302)
- Format: biochemical
- Particulars: Table C

The examples below pair each entry with its known result.
test_smiles=O=C(c1cccs1)n1nc(-c2cccnc2)nc1NCc1ccc(F)cc1 result="1 to 10 µM"
test_smiles=COc1ccccc1C(=O)n1nc(-c2ccccn2)nc1NCc1ccc(Cl)s1 result="< 0.1 µM"
test_smiles=COc1ccccc1C(=O)n1nc(C2CN(S(=O)(=O)N(C)C)C2)nc1NCc1ccc(Cl)s1 result="< 0.1 µM"
test_smiles=O=C(c1ccsc1)n1nc(-c2ccccn2)nc1NCc1ccccc1 result="10 to 100 µM"

Now examine the next entry.
GET /values?readout=IC50&system=UniProtKB P03952&item= `COc1ccc(CNc2nc(-c3ccccn3)nn2C(=O)C(C)C)cc1`
> 100 µM

====

Each record here notes measured pIC50.
- Target Entity: Human KLKB1 (Homo sapiens (Human))
- Sequence (P03952 391-638 limits assumed): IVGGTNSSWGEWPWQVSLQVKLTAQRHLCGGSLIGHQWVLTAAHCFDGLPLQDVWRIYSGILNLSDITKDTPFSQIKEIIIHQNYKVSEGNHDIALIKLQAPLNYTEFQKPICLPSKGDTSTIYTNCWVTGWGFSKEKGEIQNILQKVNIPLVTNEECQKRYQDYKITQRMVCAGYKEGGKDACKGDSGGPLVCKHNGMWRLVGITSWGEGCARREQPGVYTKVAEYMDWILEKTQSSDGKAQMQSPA
- Sequence (P03952 20-390 partner limits assumed): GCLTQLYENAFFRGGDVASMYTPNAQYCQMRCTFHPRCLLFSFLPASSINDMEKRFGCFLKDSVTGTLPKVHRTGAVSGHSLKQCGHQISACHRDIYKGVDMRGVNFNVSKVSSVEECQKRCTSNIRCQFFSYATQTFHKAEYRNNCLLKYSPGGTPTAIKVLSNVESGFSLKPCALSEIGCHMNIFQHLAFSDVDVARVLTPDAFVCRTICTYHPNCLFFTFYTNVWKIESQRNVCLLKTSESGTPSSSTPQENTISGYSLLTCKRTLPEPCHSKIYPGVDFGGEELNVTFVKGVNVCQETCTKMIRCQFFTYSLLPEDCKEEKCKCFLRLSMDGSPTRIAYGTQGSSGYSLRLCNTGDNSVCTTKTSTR
- Assay Comment: KLKB1 kallikrein activity inhibition assay (chromogenic substrate S-2302)
- Type: biochemical
- Particulars: Table B
pIC50: −log10 of the molar value.

Answered cases to consult:
compound=O=C(c1ccsc1)n1nc(-c2cccn(Cc3ccccn3)c2=O)cc1NCc1ccc(Cl)s1 metric=pIC50 result="6.00 to 7.00"
compound=O=C(c1ccsc1)n1nc(-c2cccn(Cc3ccccc3)c2=O)cc1NCc1ccc(Cl)s1 metric=pIC50 result="6.00 to 7.00"
compound=CC(C)(CO)C(=O)n1nc(-c2cccn(Cc3ccco3)c2=O)cc1NCc1ccc(Cl)s1 metric=pIC50 result="4.00 to 5.00"

GET /values?readout=pIC50&item= `O=C(c1ccoc1)n1nc(-c2ccc[nH]c2=O)cc1NCc1ccc(Cl)s1`
5.00 to 6.00

Okay, and `Cn1cccc(-c2cc(NCc3ccc(Cl)s3)n(C(=O)c3ccccc3)n2)c1=O` ?
< 4.00

Quick one: `O=C(O)Cn1cccc(-c2cc(NCc3ccc(Cl)s3)[nH]n2)c1=O`
5.00 to 6.00

====

Listed here are compounds together with their documented IC50.
- Target Entity: Human thrombin (Homo sapiens (Human))
- Assay Comment: Thrombin protease activity inhibition assay (chromogenic substrate S-2238)
- Type: biochemical
- Particulars: 3 nM thrombin, 125 μM S-2238, 10 min pre-incubation, RT

Consider the following illustrative entries.
test_smiles=O=C(c1cccc2c1OCCO2)n1nc(-c2cccn(Cc3ccccc3)c2=O)cc1NCc1ccc(Cl)s1 result="< 100 nM"
test_smiles=COCCn1cccc(-c2cc(NCc3ccc(Cl)s3)n(C(=O)C(C)(C)C)n2)c1=O result="< 100 nM"
test_smiles=O=c1c(-c2cc(NCc3ccc(Cl)s3)n[nH]2)cccn1Cc1cccs1 result="1000 to 10000 nM"
test_smiles=O=C(c1cccc2c1OCCO2)n1nc(-c2ccc[nH]c2=O)cc1NCc1ccc(Cl)s1 result="< 100 nM"
test_smiles=O=C(c1cccc2c1OCCO2)n1nc(-c2cccn(Cc3ccoc3)c2=O)cc1NCc1ccc(Cl)s1 result="< 100 nM"

Tell me the measured IC50 of `COCC(C)(C)C(=O)n1nc(-c2cccn(Cc3ccccc3)c2=O)cc1NCc1ccc(Cl)s1` , please.
< 100 nM

Here is the next compound: `COCCn1cccc(-c2cc(NCc3ccc(Cl)s3)n(C(=O)c3cccs3)n2)c1=O`
< 100 nM

Next compound: `O=c1c(-c2cc(NCc3ccc(Cl)s3)[nH]n2)cccn1Cc1ncccn1`
> 100000 nM

How about `COc1ccc(C(=O)n2nc(-c3cccn(Cc4cccnn4)c3=O)cc2NCc2ccc(Cl)s2)c(OC)c1` ?
< 100 nM

Also, `COCC(C)(C)C(=O)n1nc(-c2cccn(Cc3ncccn3)c2=O)cc1NCc1ccc(Cl)s1` please.
< 100 nM

Same question, `O=C(c1cccs1)n1nc(-c2cccn(Cc3ccccc3)c2=O)cc1NCc1ccc(Cl)s1` this time
< 100 nM

Would you mind doing `COc1ccccc1C(=O)n1nc(-c2cccn(CCN3CCOCC3)c2=O)cc1NCc1ccc(Cl)s1` as well?
< 100 nM
